Values from paper PMC8167039

For each record, write down the corresponding pEC50.
Molecular target: hPXR (Homo sapiens)
Sequence (O75469 146-433 limits assumed): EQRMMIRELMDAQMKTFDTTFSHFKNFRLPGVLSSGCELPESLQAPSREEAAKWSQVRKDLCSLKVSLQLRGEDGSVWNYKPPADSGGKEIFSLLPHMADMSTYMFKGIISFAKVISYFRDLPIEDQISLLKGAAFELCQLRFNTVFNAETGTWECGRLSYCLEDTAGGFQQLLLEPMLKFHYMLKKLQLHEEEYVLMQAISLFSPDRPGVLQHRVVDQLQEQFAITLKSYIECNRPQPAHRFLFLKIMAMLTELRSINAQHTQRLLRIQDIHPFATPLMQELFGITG
Assay: HG5LN Gal4-hPXR luciferase reporter gene assay, agonism
Friendly reminder that pEC50 comes from taking -log10 of the concentration in mol/L.

Exercise: State its pEC50 for this compound: C=CCOC(Cn1ccnc1)c1ccc(Cl)cc1Cl (stereo not drawn)
Key: 5.00

Exercise: State its pEC50 for this compound: Clc1ccccc1C(c1ccccc1)(c1ccccc1)n1ccnc1 [Clotrimazole, reference compound]
Key: 6.00

Exercise: State its pEC50 for this compound: CCOc1ccc(C(C)(C)COCc2cccc(Oc3ccccc3)c2)cc1
Key: 5.52

* * *

Molecular target: hPXR (Homo sapiens, UniProt O75469)
Sequence (O75469 146-433 limits assumed): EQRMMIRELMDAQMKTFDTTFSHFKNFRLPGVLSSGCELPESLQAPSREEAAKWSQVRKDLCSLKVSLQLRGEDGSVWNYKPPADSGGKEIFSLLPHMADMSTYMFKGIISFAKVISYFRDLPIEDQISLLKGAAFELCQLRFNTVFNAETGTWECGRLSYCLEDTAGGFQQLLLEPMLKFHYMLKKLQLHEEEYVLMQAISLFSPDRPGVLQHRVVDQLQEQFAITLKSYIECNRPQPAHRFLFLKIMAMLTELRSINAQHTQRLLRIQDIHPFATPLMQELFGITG
Assay: HG5LN Gal4-hPXR luciferase reporter gene assay, agonism
For each record, write down the corresponding EC50.

Exercise: State its EC50 for this compound: Cc1c(F)c(F)c(COC(=O)[C@@H]2[C@H](/C=C(\Cl)C(F)(F)F)C2(C)C)c(F)c1F (racemic)
Key: 4.4 µM

Exercise: State its EC50 for this compound: CCCC1COC(Cn2cncn2)(c2ccc(Cl)cc2Cl)O1 (stereo not drawn)
Key: 13 µM

Exercise: State its EC50 for this compound: COC(=O)NC(=S)Nc1ccccc1NC(=S)NC(=O)OC [Thiophanate-methyl]
Key: 35 µM

* * *

Biological target: zfPXR (Danio rerio, UniProt A5WYG8)
Sequence (A5WYG8 entry or part of it): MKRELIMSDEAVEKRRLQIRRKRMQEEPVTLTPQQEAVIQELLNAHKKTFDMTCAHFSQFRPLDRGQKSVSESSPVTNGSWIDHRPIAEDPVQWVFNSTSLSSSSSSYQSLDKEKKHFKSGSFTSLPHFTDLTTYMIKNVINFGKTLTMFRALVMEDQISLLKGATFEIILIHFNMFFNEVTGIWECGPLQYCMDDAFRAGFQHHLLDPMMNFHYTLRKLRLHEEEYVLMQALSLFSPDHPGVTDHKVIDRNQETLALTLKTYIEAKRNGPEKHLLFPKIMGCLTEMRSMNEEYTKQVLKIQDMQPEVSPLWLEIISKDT
Experiment: HG5LN Gal4-zfPXR luciferase reporter gene assay, agonism
Assay type: cell-based, zebrafish
Description: The cell lines used in this study are listed in Supplementary Table 3 . The HG5LN, HG5LN Gal4-hPXR and HG5LN Gal4-zfPXR cell lines were previously described ([19]). Briefly, HeLa cells stably transfected with the GAL4RE5-βGlobin-Luc-SVNeo plasmid (HG5LN cell line) ([15]). HG5LN cells were stably transfected with the pSG5-GAL4(DBD)-hPXR(LBD)-puro or pSG5-GAL4(DBD)-zfPXR(LBD)-puro plasmids. […]
readout_kind: pEC50
Friendly reminder that pEC50 comes from taking -log10 of the concentration in mol/L.

Exercise: State its pEC50 for this compound: Cl[C@H]1[C@H](Cl)[C@@H](Cl)[C@@H](Cl)[C@H](Cl)[C@H]1Cl [Lindane]
Key: 4.85

Exercise: State its pEC50 for this compound: O=C(Nc1ccccc1-c1ccc(Cl)cc1)c1cccnc1Cl [Boscalid]
Key: 4.24

Exercise: State its pEC50 for this compound: CCC(CC)Nc1c([N+](=O)[O-])cc(C)c(C)c1[N+](=O)[O-] [Pendimethalin]
Key: 6.33

Exercise: State its pEC50 for this compound: ClC1=C(Cl)C2(Cl)C3C(Cl)C=CC3C1(Cl)C2(Cl)Cl (centres unmarked) [Heptachlor]
Key: 5.13

Exercise: State its pEC50 for this compound: CCCOC/C(=N\c1ccc(Cl)cc1C(F)(F)F)n1ccnc1 [Triflurnizole]
Key: 5.22

Exercise: State its pEC50 for this compound: ClC1=C(Cl)C2(Cl)[C@H]3C[C@H](Cl)[C@H](Cl)[C@H]3C1(Cl)C2(Cl)Cl (stereo partly drawn) [Cis-chlordane]
Key: 4.89

Exercise: State its pEC50 for this compound: CC(C)OC(=O)Nc1cccc(Cl)c1 [Chlorpropham]
Key: 4.66

Exercise: State its pEC50 for this compound: COCC(=O)N(c1c(C)cccc1C)C(C)C(=O)OC (centres unmarked) [Metalaxyl]
Key: 4.70

Exercise: State its pEC50 for this compound: CCCC(Cn1cncn1)c1ccc(Cl)cc1Cl (centres unmarked) [Penconazol]
Key: 5.82

Exercise: State its pEC50 for this compound: CCc1cccc(CC)c1N(COC)C(=O)CCl [Alachlor]
Key: 6.17

Exercise: State its pEC50 for this compound: CCCCc1c(C)nc(NCC)nc1OS(=O)(=O)N(C)C [Bupirimate]
Key: 4.66

Exercise: State its pEC50 for this compound: COP(=S)(OC)Oc1c(Cl)cc(C)cc1Cl [Tolclofos-methyl]
Key: 5.60

Exercise: State its pEC50 for this compound: O=S1OCC2C(CO1)C1(Cl)C(Cl)=C(Cl)C2(Cl)C1(Cl)Cl (centres unmarked) [Endosulfan]
Key: 4.96

Exercise: State its pEC50 for this compound: C#C[C@]1(O)CC[C@H]2[C@@H]3CCC4=CC(=O)CC[C@@H]4[C@H]3CC[C@@]21C [Norethisterone, reference compound]
Key: 5.66

Exercise: State its pEC50 for this compound: O=C(NC(=O)c1c(F)cccc1F)Nc1ccc(Oc2ccc(C(F)(F)F)cc2Cl)cc1F [Flufenoxuron]
Key: 5.05

Exercise: State its pEC50 for this compound: COC(=O)c1cc(Oc2ccc(Cl)cc2Cl)ccc1[N+](=O)[O-] [Bifenox]
Key: 5.26

Exercise: State its pEC50 for this compound: CCN(CC)c1nc(C)cc(OP(=S)(OC)OC)n1 [Pirimiphos-methyl]
Key: 5.96

Exercise: State its pEC50 for this compound: Fc1ccc([C@]2(Cn3cncn3)O[C@H]2c2ccccc2Cl)cc1 (racemic) [Epoxiconazole]
Key: 5.80

Exercise: State its pEC50 for this compound: Cc1c(F)c(F)c(COC(=O)[C@@H]2[C@H](/C=C(\Cl)C(F)(F)F)C2(C)C)c(F)c1F (racemic) [Tefluthrin]
Key: 5.38

Exercise: State its pEC50 for this compound: C#C[C@]1(O)CC[C@H]2[C@@H]3CCC4=CC(=O)CC[C@@H]4[C@H]3CC[C@@]21CC [Levonorgestrel, reference compound]
Key: 5.85

Exercise: State its pEC50 for this compound: CCOP(=O)(NC(C)C)Oc1ccc(SC)c(C)c1 (centres unmarked) [Fenamiphos]
Key: 6.15

Exercise: State its pEC50 for this compound: CCCC1COC(Cn2cncn2)(c2ccc(Cl)cc2Cl)O1 (centres unmarked) [Propiconazole]
Key: 6.00

Exercise: State its pEC50 for this compound: C=CCOC(Cn1ccnc1)c1ccc(Cl)cc1Cl (centres unmarked) [Imazalil]
Key: 5.01

* * *

target: hPXR (Homo sapiens, UniProt O75469); assay: HG5LN Gal4-hPXR luciferase reporter gene assay, agonism; conditions: HG5LN-hPXR; maximal activity at 10 µM, % of maximal induced by 3 µM SR 12813; DMSO 19 ± 6
readout_kind: hPXR agonism Max (%)
Express the result in % but write the number alone.

Exercise: State its hPXR agonism Max for this compound: ClC1=C(Cl)[C@]2(Cl)[C@H]3[C@H]([C@H](Cl)C(Cl)[C@@H]3Cl)[C@@]1(Cl)C2(Cl)Cl (stereo partly drawn) [Trans-nonachlor]
Key: 70

Exercise: State its hPXR agonism Max for this compound: ClC1=C(Cl)C2(Cl)C3C4C=CC(C4)C3C1(Cl)C2(Cl)Cl (stereo not drawn)
Key: 70

Exercise: State its hPXR agonism Max for this compound: O=S1OCC2C(CO1)C1(Cl)C(Cl)=C(Cl)C2(Cl)C1(Cl)Cl (stereo not drawn) [Endosulfan]
Key: 72

Exercise: State its hPXR agonism Max for this compound: CC(C)(C)C(O)(CCc1ccc(Cl)cc1)Cn1cncn1 (stereo not drawn)
Key: 71

Exercise: State its hPXR agonism Max for this compound: CCOc1ccc(C(C)(C)COCc2cccc(Oc3ccccc3)c2)cc1
Key: 81

Exercise: State its hPXR agonism Max for this compound: COC(=O)NC(=S)Nc1ccccc1NC(=S)NC(=O)OC [Thiophanate-methyl]
Key: 46

Exercise: State its hPXR agonism Max for this compound: ClC(Cl)=C(c1ccc(Cl)cc1)c1ccccc1Cl
Key: 78

Exercise: State its hPXR agonism Max for this compound: CC1(C)[C@H](C(=O)O[C@H](C#N)c2cccc(Oc3ccccc3)c2)[C@@H]1C=C(Br)Br
Key: 92

Exercise: State its hPXR agonism Max for this compound: Cc1c(F)c(F)c(COC(=O)[C@@H]2[C@H](/C=C(\Cl)C(F)(F)F)C2(C)C)c(F)c1F (racemic)
Key: 76
